biological target: LDHA (Homo sapiens); construct: purified recombinant LDHA protein (CUSABIO, CSB-EP012832HU); test: SPR (Biacore 8K, LDHA immobilized on CM5 chip, steady-state analysis); supported by CETSA in SK-BR-3 cells
OBSERVABLE: Kd (µM)
Give the value in µM but do not write µM after it.

// query Retrieve Kd measured for NS(=O)(=O)OC[C@@H]1C[C@@H](n2ccc3c(N[C@H]4CCc5ccccc54)ncnc32)C[C@@H]1O and print it.
// result 35.5

From: paper PMC12446542
